# TESTED_SYSTEM: T1, hu-CD74 antigen (R&D SYSTEMS catalog #3590-CD-050) (human, UniProt P04233-2 73-232, limits assumed)
# T1 construct: Bought antigen; also called rhCD74; human CD74
# T1 sequence (looked up): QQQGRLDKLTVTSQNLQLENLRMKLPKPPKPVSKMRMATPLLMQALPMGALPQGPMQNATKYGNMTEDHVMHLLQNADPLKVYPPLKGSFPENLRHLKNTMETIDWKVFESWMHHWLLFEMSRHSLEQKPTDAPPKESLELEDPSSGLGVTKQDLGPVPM
# TEST_DETAILS: SPR (Biacore T200), IgG captured on anti-human Fc, rhCD74 analyte
MEASURED_ATTRIBUTE: koff (s⁻¹)
Respond numerically; units are s⁻¹ and should not be typed.

>>> recorded_result("HC 1251_B08 (wt)/LC 1275_C10 (g) (antibody, human IgG1, kappa, V domains shown, IgG format) VH: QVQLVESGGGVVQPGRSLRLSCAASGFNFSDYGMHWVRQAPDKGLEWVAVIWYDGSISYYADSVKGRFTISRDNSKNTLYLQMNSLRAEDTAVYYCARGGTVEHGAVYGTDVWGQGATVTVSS VL: DIQMTQSPSSVSASVGDRVTITCRASQGVSSWLAWYQQKPGKAPKLLIYSARYLQSGVPSRFSGSGSGTDFTLTISSLQPEDFATYYCQQYNLYPLTFGGGTKVEIKR")
0.000124
>>> recorded_result("HC 1251_A06 (wt)/LC 1337_A07 (wt) (antibody, human IgG1, kappa, V domains shown, IgG format) VH: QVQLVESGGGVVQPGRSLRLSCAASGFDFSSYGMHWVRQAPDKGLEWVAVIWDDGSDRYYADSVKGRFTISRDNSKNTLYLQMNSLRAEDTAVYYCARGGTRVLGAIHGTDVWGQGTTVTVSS VL: DIQMTQSPSSLSASVGDRVTITCRASQGISSWVAWYQQKPEKAPKSLIYGASRLQSGVPSRFSGSGSGTDFTLTISSLQPEDFATYYCQQYHTYPLTFGGGTKVEIKR")
0.0001
>>> recorded_result("HC 1251_B08 (wt)/LC 1337_A10 (g) (antibody, human IgG1, kappa, V domains shown, IgG format) VH: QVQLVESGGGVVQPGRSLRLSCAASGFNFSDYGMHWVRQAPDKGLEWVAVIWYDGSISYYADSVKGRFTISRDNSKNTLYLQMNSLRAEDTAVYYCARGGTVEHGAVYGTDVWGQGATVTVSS VL: DIQMTQSPSSVSASVGDRVTITCRASQGISSWVAWYQQKPGKAPKLLIYGSSRLQSGVPSRFSGSGSGTDFTLTISSLQPEDFATYYCQQYNTYPLTFGGGTKVEIKR")
0.000183

Give its koff value. Item: HC 1251_A06 (g)/LC 1275_C10 (wt) (antibody, human IgG1, kappa, V domains shown, IgG format) VH: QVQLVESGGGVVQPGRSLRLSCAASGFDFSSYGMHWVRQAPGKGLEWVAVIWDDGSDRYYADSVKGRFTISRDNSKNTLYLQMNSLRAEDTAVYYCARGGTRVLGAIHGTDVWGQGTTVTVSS VL: DIQMTQSPSSLSASVGDRVTITCRASQGVSSWLAWYQQKPEKAPKSLIYSARYLQSGVPSRFSGSGSGTDFTLTISSLQPEDFATYYCQQYNLYPLTFGGGTKVEIKR
0.000177

Give its koff value. Item: HC 1251_B08 (g)/LC 1337_A07 (wt) (antibody, human IgG1, kappa, V domains shown, IgG format) VH: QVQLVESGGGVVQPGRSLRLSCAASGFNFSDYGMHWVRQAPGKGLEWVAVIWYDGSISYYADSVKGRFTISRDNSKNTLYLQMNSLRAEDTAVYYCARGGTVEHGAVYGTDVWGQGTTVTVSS VL: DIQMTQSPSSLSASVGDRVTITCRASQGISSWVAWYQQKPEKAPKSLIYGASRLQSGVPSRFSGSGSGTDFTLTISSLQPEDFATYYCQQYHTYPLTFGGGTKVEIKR
9.23e-05
